Measured AC50, listed per entry for reference.
Target: FAD-linked sulfhydryl oxidase ALR (Homo sapiens, UniProt P55789)
Sequence (P55789 whole entry): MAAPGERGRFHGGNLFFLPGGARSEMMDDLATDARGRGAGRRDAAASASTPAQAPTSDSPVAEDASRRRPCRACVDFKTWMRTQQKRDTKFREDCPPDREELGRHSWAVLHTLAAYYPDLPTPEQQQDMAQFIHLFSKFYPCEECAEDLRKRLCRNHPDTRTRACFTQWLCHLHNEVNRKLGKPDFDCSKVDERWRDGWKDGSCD
Experiment: ALR-catalysed DTT oxidation blockers – biochemical, H2O2 detection, luminescence, cherry-pick, dose response (AID 493248)
Calls of active or inactive are those of the source. Rule as the data show it: actives have a measured AC50 and inactives only a lower limit.

[
  {
    "MOLECULE_SMILES": "CN1Cc2cc(C(=O)c3ccccc3O)cnc2NC1=O",
    "AC50": "6.59 µM (active)"
  },
  {
    "MOLECULE_SMILES": "CC(=O)N1CCC(=NNC(=O)c2cccs2)CC1",
    "AC50": "13.5 µM (active)"
  },
  {
    "MOLECULE_SMILES": "CN(C)/C=N/C1=NN(c2cccc(C(F)(F)F)c2)CC1",
    "AC50": "1.5 µM (active)"
  },
  {
    "MOLECULE_SMILES": "Cc1c(Br)c(O)c(Br)c(O)c1/C=N/n1c(S)nnc1-c1ccccc1",
    "AC50": "4.15 µM (active)"
  }
]
